test system: Enterobacter cloacae; assay: Antibacterial activity against colistin-resistant Enterobacter cloacae 297 by broth microdilution method; format: functional
The source made the active and inactive calls. No cut-off for these calls is given here.
propertyMeasured: MIC

INSERT INTO assay_data (compound, experimentalsystem, resultvalue) VALUES
  ('NCCCCOc1ccc(Cl)cc1C(=O)Nc1ccc([N+](=O)[O-])cc1Cl', 'Enterobacter cloacae', '> 15 µg/mL'),
  ('NCCCCCOc1ccc(Cl)cc1C(=O)Nc1ccc([N+](=O)[O-])cc1Cl', 'Enterobacter cloacae', 'inactive'),
  ('O=C(Nc1ccc([N+](=O)[O-])cc1Cl)c1cc(Cl)ccc1O [NICLOSAMIDE]', 'Enterobacter cloacae', '> 15 µg/mL'),
  ('NCCOCCOc1ccc(Cl)cc1C(=O)Nc1ccc([N+](=O)[O-])cc1Cl', 'Enterobacter cloacae', '> 15 µg/mL'),
  ('CC[C@H](N)COc1ccc(Cl)cc1C(=O)Nc1ccc([N+](=O)[O-])cc1Cl', 'Enterobacter cloacae', 'inactive');
